testTarget: T1, interleukin 18 binding protein (IL-18BP) (UniProt O95998 31-194)
T1 sequence (looked up): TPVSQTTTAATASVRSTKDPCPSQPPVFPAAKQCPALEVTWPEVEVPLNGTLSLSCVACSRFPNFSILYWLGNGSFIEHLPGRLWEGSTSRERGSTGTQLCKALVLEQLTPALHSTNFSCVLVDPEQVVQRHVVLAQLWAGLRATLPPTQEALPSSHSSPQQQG
experimentDescription: cell-based or functional assay
Please provide measured Ratio (-BP/+BP), DF-1,000,000 for the entries that follow.
Answer with a number only.

Task: Return Ratio (-BP/+BP), DF-1,000,000 for the following binder: IL-18 variant K53H, S55M, T63S (ligand) YFGKLESKLSVIRNLNDQVLFIDQGNRPLFEDMTDSDMRDNAPRTIFIISMYHDMQPRGMAVSISVKSEKISTLSSENKIISFKEMNPPDNIKDTKSDIIFFQRSVPGHDNKMQFESSSYEGYFLASEKERDLFKLILKKEDELGDRSIMFTVQNED
Result: 0.83

Task: Return Ratio (-BP/+BP), DF-1,000,000 for the following binder: IL-18 variant K53V, S55Q (ligand) YFGKLESKLSVIRNLNDQVLFIDQGNRPLFEDMTDSDMRDNAPRTIFIISMYVDQQPRGMAVTISVKSEKISTLSSENKIISFKEMNPPDNIKDTKSDIIFFQRSVPGHDNKMQFESSSYEGYFLASEKERDLFKLILKKEDELGDRSIMFTVQNED
Result: 0.88

Task: Return Ratio (-BP/+BP), DF-1,000,000 for the following binder: IL-18 variant K53H, S55G (ligand) YFGKLESKLSVIRNLNDQVLFIDQGNRPLFEDMTDSDMRDNAPRTIFIISMYHDGQPRGMAVTISVKSEKISTLSSENKIISFKEMNPPDNIKDTKSDIIFFQRSVPGHDNKMQFESSSYEGYFLASEKERDLFKLILKKEDELGDRSIMFTVQNED
Result: 1.02

Task: Return Ratio (-BP/+BP), DF-1,000,000 for the following binder: IL-18 variant S36Q, D40T, K53P, S55L (ligand) YFGKLESKLSVIRNLNDQVLFIDQGNRPLFEDMTDQDMRTNAPRTIFIISMYPDLQPRGMAVTISVKSEKISTLSSENKIISFKEMNPPDNIKDTKSDIIFFQRSVPGHDNKMQFESSSYEGYFLASEKERDLFKLILKKEDELGDRSIMFTVQNED
Result: 0.9

Task: Return Ratio (-BP/+BP), DF-1,000,000 for the following binder: IL-18 variant K53N, S55H, H109F (ligand) YFGKLESKLSVIRNLNDQVLFIDQGNRPLFEDMTDSDMRDNAPRTIFIISMYNDHQPRGMAVTISVKSEKISTLSSENKIISFKEMNPPDNIKDTKSDIIFFQRSVPGFDNKMQFESSSYEGYFLASEKERDLFKLILKKEDELGDRSIMFTVQNED
Result: 1.17

Task: Return Ratio (-BP/+BP), DF-1,000,000 for the following binder: IL-18 variant K53G, S55V, R104Y, H109N (ligand) YFGKLESKLSVIRNLNDQVLFIDQGNRPLFEDMTDSDMRDNAPRTIFIISMYGDVQPRGMAVTISVKSEKISTLSSENKIISFKEMNPPDNIKDTKSDIIFFQYSVPGNDNKMQFESSSYEGYFLASEKERDLFKLILKKEDELGDRSIMFTVQNED
Result: 1.02

Task: Return Ratio (-BP/+BP), DF-1,000,000 for the following binder: IL-18 variant T34E, N41D, K53N, S55R (ligand) YFGKLESKLSVIRNLNDQVLFIDQGNRPLFEDMEDSDMRDDAPRTIFIISMYNDRQPRGMAVTISVKSEKISTLSSENKIISFKEMNPPDNIKDTKSDIIFFQRSVPGHDNKMQFESSSYEGYFLASEKERDLFKLILKKEDELGDRSIMFTVQNED
Result: 1.05
